- Assayed System: human APJ receptor (Homo sapiens)
- Construct: expressed in transfected cells
- Method: Intracellular cAMP accumulation assay (APJ hcAMP, HTRF)
- Type: cell-based
- Protocol Conditions: Table 2; HEK293 cells stably expressing human APJ receptor; read-out: hAPJ cAMP EC50 Potency range
Assay Metric: EC50

Item: CCCCc1nc(O)c(-c2nnc(Cc3noc4ccccc34)o2)c(=O)n1[C@@H](COC)c1ccccc1 | System: human APJ receptor (Homo sapiens) | EC50: 10 to 100 nM

Bench note, human APJ receptor (Homo sapiens): CCCCc1nc(O)c(-c2nnc(Cc3csc(C)n3)o2)c(=O)n1[C@H](C)C1CC1 , EC50 reads 100 to 300 nM

Simply: CCCCc1nc(O)c(-c2nnc(Cc3noc4ccccc34)o2)c(=O)n1[C@H](CC)c1ccccc1 , human APJ receptor (Homo sapiens), EC50 = 0.01 to 10 nM

Entry CCCCc1nc(O)c(-c2nnc(Cc3ccc(Cl)cn3)o2)c(=O)n1[C@@H](C)c1ccc(F)cc1 under human APJ receptor (Homo sapiens) had EC50 of 0.01 to 10 nM

###

- Assayed System: human APJ receptor (Homo sapiens, UniProt P35414)
- Construct: expressed in transfected cells
- Method: Intracellular cAMP accumulation assay (APJ hcAMP, HTRF)
- Type: cell-based
- Protocol Conditions: Table 2; HEK293 cells stably expressing human APJ receptor; read-out: hAPJ cAMP EC50 Potency range
pEC50: −log10 of the molar value.
Assay Metric: pEC50

Entry CCCCc1nc(O)c(-c2nnc(Cc3csc(C)n3)o2)c(=O)n1[C@@H](C)c1ccccc1 ; pEC50 = 8.00 to 11.00

Entry CCCCc1nc(O)c(-c2nnc(Cc3ccc(Cl)cn3)o2)c(=O)n1[C@@H](COC)c1ccccc1 ; pEC50 = 8.00 to 11.00

The reported value for CCCCc1nc(O)c(-c2nnc(Cc3csc(C)n3)o2)c(=O)n1[C@H](CC)c1ccccc1 in terms of pEC50 is 8.00 to 11.00

# pEC50 (compound: CCCCc1nc(O)c(-c2nnc(Cc3noc4ccccc34)o2)c(=O)n1[C@@H]1CCc2ccccc21 ) is 6.52 to 7.00

###

- Assayed System: human APJ receptor (Homo sapiens, UniProt P35414)
- Construct: expressed in transfected cells
- Method: Intracellular cAMP accumulation assay (APJ hcAMP, HTRF)
- Format: cell-based
- Protocol Conditions: Table 2; HEK293 cells stably expressing human APJ receptor; read-out: hAPJ cAMP EC50 Potency range
For each of the molecules below, state its EC50.

Given item CCCCc1nc(O)c(-c2nnc(Cc3csc(C)n3)o2)c(=O)n1[C@H](COC)c1ccccc1 , the value recorded as its EC50 is 100 to 300 nM

Quick note, EC50 for CCCCc1nc(O)c(-c2nnc(Cc3ccc(Cl)cc3)o2)c(=O)n1[C@H](C)c1ccccc1OC landed at 10 to 100 nM

Documented EC50 of CCCCc1nc(O)c(-c2nnc(Cc3noc4ccccc34)o2)c(=O)n1[C@@H](C)c1cccc(OC)c1 : 10 to 100 nM

###

- Assayed System: human APJ receptor (Homo sapiens)
- Construct: expressed in transfected cells
- Sequence (P35414 1-380): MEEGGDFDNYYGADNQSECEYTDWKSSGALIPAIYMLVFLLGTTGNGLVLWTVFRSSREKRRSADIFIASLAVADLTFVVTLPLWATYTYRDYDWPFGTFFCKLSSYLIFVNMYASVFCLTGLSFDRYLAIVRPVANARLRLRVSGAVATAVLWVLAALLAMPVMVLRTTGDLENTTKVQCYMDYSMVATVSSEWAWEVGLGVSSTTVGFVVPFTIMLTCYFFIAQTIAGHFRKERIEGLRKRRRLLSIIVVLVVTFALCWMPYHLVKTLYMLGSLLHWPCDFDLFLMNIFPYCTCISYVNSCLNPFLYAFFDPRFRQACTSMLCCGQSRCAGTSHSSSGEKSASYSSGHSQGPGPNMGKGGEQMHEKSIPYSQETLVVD
- Method: Intracellular cAMP accumulation assay (APJ hcAMP, HTRF)
- Assay type: cell-based
- Protocol Conditions: Table 2; HEK293 cells stably expressing human APJ receptor; read-out: hAPJ cAMP EC50 Potency range
Could you please report measured EC50 for the items listed next?

EC50 reading for CCCCc1nc(O)c(-c2nnc(Cc3csc(C)n3)o2)c(=O)n1[C@@H](CCC)c1ccccc1 : 10 to 100 nM

For reference, reported EC50 for CCCCc1nc(O)c(-c2nnc(Cc3ccc(Cl)cn3)o2)c(=O)n1[C@@H](C)c1cccc(C#N)c1 stands at 0.01 to 10 nM

// recorded EC50 for CCCCc1nc(O)c(-c2nnc(Cc3ccc(Cl)cn3)o2)c(=O)n1[C@@H](C)c1ccccc1 : 0.01 to 10 nM

CCCCc1nc(O)c(-c2nnc(Cc3csc(C)n3)o2)c(=O)n1[C@@H](CC)c1ccccc1 yielded EC50 of 0.01 to 10 nM

// EC50 lookup, compound = CCCCc1nc(O)c(-c2nnc(Cc3csc(C)n3)o2)c(=O)n1C(C)c1cccnc1 (racemic) , result: 100 to 300 nM

Looking up CCCCc1nc(O)c(-c2nnc(Cc3csc(C)n3)o2)c(=O)n1C(c1ccccc1)C(C)C (stereo not shown) , I see its EC50 listed as 10 to 100 nM

Form: compound = CCCCc1nc(O)c(-c2nnc(Cc3noc4ccccc34)o2)c(=O)n1[C@H](C)c1ccccc1 ; EC50 = 0.01 to 10 nM

Quick note, EC50 for CCCCc1nc(O)c(-c2nnc(Cc3noc4ccccc34)o2)c(=O)n1C(C)c1ccncc1 (stereo not shown) landed at 10 to 100 nM

For CCCCc1nc(O)c(-c2nnc(Cc3ccc(Cl)cn3)o2)c(=O)n1[C@H]1CCCc2ccccc21 the compound record lists EC50 as 0.01 to 10 nM

Per the records, this compound ( CCCCc1nc(O)c(-c2nnc(Cc3ccc(Cl)cn3)o2)c(=O)n1[C@@H](CCC)c1ccccc1 ) has EC50 equal to 0.01 to 10 nM

Consider CCCCc1nc(O)c(-c2nnc(Cc3noc4ccccc34)o2)c(=O)n1C(C)c1cccnc1 (stereo not shown) . Its measured EC50 is 100 to 300 nM

Given item CCCCc1nc(O)c(-c2nnc(Cc3ccc(Cl)cc3)o2)c(=O)n1[C@@H](CC)c1ccccc1 , the value recorded as its EC50 is 10 to 100 nM

The value of EC50 measured for the compound CCCCc1nc(O)c(-c2nnc(Cc3noc4ccccc34)o2)c(=O)n1[C@H](COC)c1ccccc1 turned out to be 100 to 300 nM

The recorded EC50 for entry CCCCc1nc(O)c(-c2nnc(Cc3ccc(Cl)cc3)o2)c(=O)n1[C@H](C)c1ccccc1 equals 10 to 100 nM

Form: compound = CCCCc1nc(O)c(-c2nnc(Cc3ccc(Cl)cn3)o2)c(=O)n1[C@@H]1CCc2ccccc21 ; EC50 = 10 to 100 nM

For record CCCCc1nc(O)c(-c2nnc(Cc3ccc(Cl)cn3)o2)c(=O)n1[C@H](COC)c1ccccc1 the listed EC50 is 10 to 100 nM
